Measured Metric: melting point

Cc1ccc(-c2cccc(/C=C/C(=O)Nc3ccc(Cc4cccc[n+]4[O-])cc3)c2)cc1 : 183 to 185 °C
COc1cc(CN2CCN(Cc3ccc(NC(=O)C4=Cc5cc(-c6ccc(C)cc6)ccc5CC4)cc3)CC2)cc(OC)c1OC : 143 to 144 °C
Cc1ccc(-c2ccc3c(c2)C=C(C(=O)Nc2ccc(-c4ccccn4)cc2)CCO3)cc1 : 228 to 229 °C
Cc1ccc(-c2ccc3c(c2)C=C(C(=O)Nc2ccc(CNc4cccnc4)cc2)CC3)cc1 : 212 to 214 °C
O=C(Nc1ccc(CN2CCCCC2)cc1)C1=Cc2cc(-c3ccc(F)cc3)ccc2CC1 : 175 to 176 °C
Cc1ccc(-c2cccc(/C=C/C(=O)Nc3ccc(C(O)c4ccccn4)cc3)c2)cc1 (stereo not drawn) : 162 to 165 °C
Cc1ccc(-c2ccc3c(c2)C=C(C(=O)Nc2ccc(CP4(=O)CCCCC4)cc2)CCC3)cc1 : 282 to 283 °C (dec.)
CCc1ccc(-c2ccc3c(c2)C=C(C(=O)Nc2ccc(CN(C)C4CCOCC4)cc2)CCO3)cc1 : 181 to 182 °C
Cc1ccc(-c2ccc3c(c2)C=C(C(=O)Nc2ccc(C(O)c4cccc[n+]4[O-])cc2)CCO3)cc1 (stereo not drawn) : 208 to 210 °C
Cc1ccc(-c2ccc3c(c2)C=C(C(=O)Nc2ccc(-c4cccnc4)cc2)CCO3)cc1 : 214 to 216 °C
COCOc1ccc[n+]([O-])c1Cc1ccc(NC(=O)C2=Cc3cc(-c4ccc(C)cc4)ccc3OCC2)cc1 : 206 to 208 °C
Cc1ccc(-c2ccc3c(c2)C=C(C(=O)Nc2ccc(CN4CCCCC4)cc2)CC3)cc1 : 187 to 189 °C
COCCN(C)Cc1ccc(NC(=O)C2=Cc3cc(-c4ccc(C)cc4)ccc3OCC2)cc1 : 121 to 122 °C
CN1CCC(C(=O)Nc2ccc(CN(C)C3CCOCC3)cc2)=Cc2cc(-c3ccc(OC(F)(F)F)cc3)ccc21 : 182 to 183 °C
Cc1ccc(-c2ccc3c(c2)C=C(C(=O)Nc2ccc(CN4CCC(O)CC4)cc2)CC3)cc1 : 223 to 224 °C
COCCN(CCOC)Cc1ccc(NC(=O)C2=Cc3cc(-c4ccc(C)cc4)ccc3OCC2)cc1 : 110 to 112 °C
CN1CCN(c2ccc(-c3ccc4c(c3)C=C(C(=O)Nc3ccc(CN(C)C5CCOCC5)cc3)CCO4)cc2)CC1 : 220 to 221 °C
COc1ccc(-c2ccc3c(c2)C=C(C(=O)Nc2ccc(CN(C)C4CCC(=O)CC4)cc2)CCS3)cc1 : 133 to 139 °C
Cc1ccc(-c2ccc3c(c2)C=C(C(=O)Nc2ccc(CCN4CCCCC4)cc2)CCO3)cc1 : 201 to 202 °C
Cc1ccc(-c2ccc3c(c2)C=C(C(=O)Nc2ccc(CN4CCCCC4)cc2)CC(C)O3)cc1 (stereo not drawn) : 175 to 176 °C
Cc1ccc(-c2ccc3c(c2)C=C(C(=O)Nc2ccc(C(O)CN4CCCCC4)cc2)CCO3)cc1 (stereo not drawn) : 212 to 213 °C
Cc1ccc(-c2ccc3c(c2)C=C(C(=O)Nc2ccc(Cc4ccccn4)cc2)CCO3)cc1 : 189 to 190 °C
Cc1ccc(-c2ccc3c(c2)C=C(C(=O)Nc2ccc(CNc4ccccn4)cc2)CCO3)cc1 : 189 to 190 °C
Cc1ccc(-c2ccc3c(c2)C=C(C(=O)Nc2ccc(CN(C)C4CCOCC4)cc2)CCN3S(=O)(=O)C(F)(F)F)cc1 : 185 to 187 °C
Cc1ccc(-c2ccc3c(c2)C=C(C(=O)Nc2ccc(CSCc4ccccc4)cc2)CCO3)cc1 : 145 to 146 °C
CN(Cc1ccc(NC(=O)C2=Cc3cc(-c4ccc(-n5ccnc5)cc4)ccc3OCC2)cc1)C1CCOCC1 : 194 to 195 °C
CN(C)c1ccc(-c2ccc3c(c2)C=C(C(=O)Nc2ccc(CN(C)C4CCOCC4)cc2)CCO3)cc1 : 208 to 209 °C (dec.)
Cc1ccc(-c2cc3ccc(C(=O)Nc4ccc(CN(C)C5CCOCC5)cc4)cc3o2)cc1 : 224 to 227 °C
CCOCCCN(C)Cc1ccc(NC(=O)C2=Cc3cc(-c4ccc(OCC)cc4)ccc3N(C)CC2)cc1 : 129 to 131 °C
Cc1ccc(-c2cccc(/C=C/C(=O)Nc3ccc(CN4CCN(Cc5ccc6c(c5)OCO6)CC4)cc3)c2)cc1 : 204 to 207 °C

---

Measured Metric: melting point

Cc1ccc(-c2ccc3c(c2)C=C(C(=O)Nc2ccc(C(=O)C4CCCCN4C)cc2)CCO3)cc1 (stereo not shown) : 162 to 163 °C
Cc1ccc(-c2ccc3c(c2)C=C(C(=O)Nc2ccc(CN4CCCCC4)cc2)CC(c2ccccc2)O3)cc1 (stereo not shown) [Compound 102] : 210 to 211 °C
Cc1ccc(-c2ccc3c(c2)C=C(C(=O)Nc2ccc(CN(C)C4CCOCC4)cc2)CCO3)cc1 [Compound 128] : 162 to 163 °C
CN1CCC(C(=O)Nc2ccc(CN(C)C3CCOCC3)cc2)=Cc2cc(-c3ccc(N4CCCCC4)cc3)ccc21 [Compound 316] : 202 to 204 °C

---

Where a name gives a salt, the structure may show the parent alone.
Measured Metric: melting point

Cc1ccc(-c2ccc3c(c2)C=C(C(=O)Nc2ccc(Cc4cccc[n+]4[O-])cc2)CO3)cc1 : 261 to 263 °C
Cc1ccc(-c2ccc3c(c2)C=C(C(=O)Nc2ccc(CS(=O)(=O)C4CCCCC4)cc2)CCO3)cc1 : 250 to 251 °C
Cc1ccc(-c2ccc3c(c2)C=C(C(=O)Nc2ccc(CSC4CCCCC4)cc2)CCO3)cc1 : 161 to 162 °C
Cc1ccc(-c2cccc(/C=C/C(=O)Nc3ccc(C[N+]4(C)CCCCC4)cc3)c2)cc1 (as salt: iodide) : 176 to 178 °C
Cc1ccc(-c2ccc3c(c2)C=C(C(=O)Nc2ccc(C[N+](C)(C)C4CCOCC4)cc2)CCO3)cc1.[Cl-] : 232 to 237 °C (dec.)
CN(C)c1ccc(-c2ccc3c(c2)C=C(C(=O)Nc2ccc(CP4(=O)CCCCC4)cc2)CCO3)cc1.Cl : 162 to 163 °C
CCP(=O)(CC)Cc1ccc(NC(=O)C2=Cc3cc(-c4ccc(C)cc4)ccc3OCC2)cc1 : 240 to 241 °C
CN(C)Cc1ccc(NC(=O)C2=Cc3cc(-c4ccccc4)ccc3CC2)cc1 : 182 to 184 °C

---

Target Or System: human MCP-1 receptor (Homo sapiens, UniProt P41597)
Construct: expressed in transfected cells; host or cells: CHO cells, transformant CHO(MCR); FERM BP-5446; IFO 50461
Sequence (P41597 whole entry): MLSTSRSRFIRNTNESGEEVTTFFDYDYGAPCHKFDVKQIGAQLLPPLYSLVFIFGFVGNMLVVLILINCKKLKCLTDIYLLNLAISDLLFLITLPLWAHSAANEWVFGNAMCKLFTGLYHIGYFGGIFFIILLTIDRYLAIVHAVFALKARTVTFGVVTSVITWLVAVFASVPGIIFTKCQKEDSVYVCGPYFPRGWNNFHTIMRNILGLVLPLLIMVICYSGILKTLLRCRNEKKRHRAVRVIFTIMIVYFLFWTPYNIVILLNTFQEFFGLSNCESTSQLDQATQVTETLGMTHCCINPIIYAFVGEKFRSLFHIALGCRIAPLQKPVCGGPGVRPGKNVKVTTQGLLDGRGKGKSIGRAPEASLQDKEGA
Assay Explanation: Determination of inhibitory activity on MCP-1 receptor (125I-MCP-1 binding to CHO cells expressing human MCP-1 receptor)
Test Context: Test Compound 1 μM, 125I-human recombinant MCP-1 100 pM, room temperature 40 minutes
Each item that follows carries a reported Inhibition Rate (%) against MCP-1 binding to its receptor.
Measured Metric: Inhibition Rate (%) against MCP-1 binding to its receptor

CN(Cc1ccc(NC(=O)C2=Cc3cc(-c4ccc(N5CCCCC5)cc4)ccc3OCC2)cc1)C1CCOCC1 : 80
Cc1ccc(-c2ccc3c(c2)C=C(C(=O)Nc2ccc(C[N+]4(C)CCCCC4)cc2)CCS3)cc1 : 92
Cc1ccc(-c2ccc3c(c2)C=C(C(=O)Nc2ccc(CN(C)C4CCOCC4)cc2)CCO3)cc1 : 80
Cc1ccc(-c2ccc3c(c2)C=C(C(=O)Nc2ccc(C[N+]4(C)CCCCC4)cc2)CCO3)cc1 : 96

---

Structures can show the parent of a compound that is named as a salt.
Measured Metric: melting point

Cc1ccc(-c2ccc3c(c2)C=C(C(=O)Nc2ccc(C[N+]4(C)CCCCC4)cc2)CCS3)cc1 (as salt: iodide) [Compound 94] : 196 to 197 °C
Cc1ccc(-c2ccc3c(c2)C=C(C(=O)Nc2ccc(C[N+](C)(C)CCCO)cc2)CCO3)cc1.[I-] [Compound 240] : 216 to 219 °C
CN(Cc1ccc(NC(=O)C2=Cc3cc(-c4ccc(N5CCCC5)cc4)ccc3OCC2)cc1)C1CCOCC1 [Compound 150] : 210 to 211 °C
O=C(Nc1ccc(CN2CCCCC2)cc1)c1ccc2ccc(-c3ccccc3)cc2c1 [Compound 58] : 177 to 178 °C
COc1ccc(N2CCN(Cc3ccc(NC(=O)/C=C/c4cccc(-c5ccc(C)cc5)c4)cc3)CC2)cc1 [Compound 62] : 207 to 208 °C
Cc1ccc(-c2ccc3c(c2)C=C(C(=O)Nc2ccc(-c4ccc[n+]([O-])c4)cc2)CCO3)cc1 [Compound 165] : 262 °C (dec.)
Cc1ccc(-c2ccc3c(c2)C=C(C(=O)Nc2ccc(CN(C)C4CCOCC4)cc2)CC(C)O3)cc1 (stereo not shown) [Compound 104] : 170 to 171 °C
